Recorded TGI, one value per entry.
Tested on: UACC-62 melanoma
protocol_notes: NCI tumour cell line growth inhibition, 48 h
measure: TGI

> print(dat)
                                   compound  measure    result
1  O=C1NNC=Nc2ccc(cc2)S(=O)(=O)c2ccc(cc2)N=CNNC1=O      TGI  > 100 µM
2  Cc1cc2c(cc1C)[n+](=O)c(C(=O)CC(=O)C(=O)Nc1c(C(C)C)cccc1C(C)C)c(C)n2[O-]      TGI  > 100 µM
3  CC1=C(CCCNS(C)(=O)=O)C2=C(C)C3(CC3)[C@@](C)(O)C(=O)C2=C1      TGI   3.45 µM
4  CN(C)CCCOC(=O)C(c1ccccc1)C1(O)CCSCC1 (stereo not given)      TGI  > 100 µM
5  c1ccc2c(c1)OC(N1CCCC1)c1cnc(N3CCCC3)nc1-2 (stereo not given)      TGI  > 100 µM

* * *

System: MDA-MB-231 breast
protocol_notes: NCI tumour cell line growth inhibition, 48 h
# maps each entry to its TGI
measure: TGI

> print(dat)
                                   compound    result
1              COc1ccccc1Nc1nc(N)nc(N)c1N=O  > 100 µM
2  C[C@]12CC[C@H](O)CC1=CC[C@@H]1[C@@H]2CC[C@]2(C)C(c3cccnc3)=CC[C@@H]12  > 100 µM
3  CCCCC(=O)OCC1OC(n2cnc3c(=S)nc[nH]c32)C(OC(=O)CCCC)C1OC(=O)CCCC (stereo not given)  > 100 µM
4         O=[N+]([O-])/C=C\c1ccc(Cl)c(Cl)c1   23.2 µM
5  O=C(Nc1ccc(Br)cc1)c1c(-c2ccccc2)c2ccc(O)cc2oc1=O   > 10 µM

* * *

In this section, each of the compounds is paired with its reported TGI.
Test system: SK-OV-3 ovarian
protocol_notes: NCI tumour cell line growth inhibition, 48 h
measure: TGI (µM)

compound	measure	inequality_operator	quantitative_readout
COCOC1/C=C/CCCC#C[C@H](C)C(=O)CC1 (stereo partly specified)	TGI	=	29.3
Brc1ccc(CCNCCN2CCCCC2)cc1	TGI	=	42
O=C(Nc1ccc(N2CCNCC2)cc1)c1[nH]ncc1Nc1cc(Oc2ccccc2)ncn1	TGI	=	4.84
OCCCCCNc1c2ccccc2nc2ccccc12	TGI	=	13.7
Cc1ccc(S(=O)(=O)N(CCOc2ccc(/C(N)=N/Cl)cc2)CCOc2ccc(/C(N)=N\Cl)cc2)cc1	TGI	>	100
O=C(O)c1cc2c(cc1CC(Cc1ccc3c(c1)CCC3)C(=O)O)CCC2 (stereo unspecified)	TGI	>	100
Clc1ccc(C2N3CCCCC3[C@@H]3c4[nH]c5ccccc5c4CCN23)cc1 (stereo partly specified)	TGI	>	100
O=C(NNC(=S)Nc1ccc(Cl)cc1)c1cc(-c2ccccc2)nc2ccccc12	TGI	=	19.8
N#CSCC1CC(O)(c2ccccc2)C(c2ccccc2)C(c2ccc(Cl)cc2)O1 (stereo unspecified)	TGI	=	6.21
CN(CCC#N)c1ccc(/C=C2\SC(=S)NC2=O)cc1	TGI	>	100
COc1ccc2[nH]c(O)c(/C=c3/cc4c(c(-c5cc(OC)c(OC)c(OC)c5)n3)=Nc3ccccc3-4)c2c1	TGI	>	100
NCC(=O)NS(=O)(=O)OC[C@H]1O[C@@H](n2cnc3c(N)ncnc32)[C@H](O)[C@@H]1O	TGI	=	7.94
C[C@@]12[C@H]3CC[C@@H]1[C@H](O)C(=O)N2CC3	TGI	>	100
CCCCCCCCCCCCCCCCCCNc1ccn(C2OC(COP(=O)(O)OCC3OC(n4ccc(NC(=O)CCCCCCCCCCCCCCCCC)nc4=O)C(OC(C)=O)C3OC(C)=O)C(OC(C)=O)C2OC(C)=O)c(=O)n1 (stereo unspecified)	TGI	>	100
O=C1CCC[C@@H]2NC[C@@H](c3ccc4c(c3)OCO4)[C@H]12	TGI	>	25
COc1ccc(CNc2cc(OC)c(OC)c(OC)c2)cc1	TGI	>	90.5
C=C(C)C12CC(COC(=O)c3ccccc3)C34OC5(OC1C3C1OC1(CO)C(O)C1(O)C(OC(=O)c3ccccc3)C(C)C(C(C)CCCCCCC5O)C14)O2 (stereo unspecified)	TGI	>	100
COC(=O)C1=C(C(=O)OC)C2C=CC1C1C(Cl)=C(Cl)C21 (stereo unspecified)	TGI	>	100
CCCCCCCCCCCC(=O)CC(=O)c1c(O)cccc1O	TGI	=	95.5
COc1cc(C2c3cc4c(cc3C(NCC(O)CO)C3COC(=O)[C@H]23)OCO4)cc(OC)c1OC (stereo partly specified)	TGI	>	100
Cc1c(C(=O)N/N=C/c2ccc(Cl)cc2)nnn1-c1ccnc2c(C(F)(F)F)cccc12	TGI	=	25.2

// data source = PubChem BioAssay (NCI)
